# assay_summary: Plasma 5-HTP pharmacokinetics of 24 h continuous IV 5-HTP infusion, Phase 1 study
# Assay type: in vivo, human
# experimental_context: both sexes, human, plasma, iv, 1 mg/kg, Cohort 1, constant rate 1 mg/kg/24 hr IV; healthy adults on escitalopram; mean, N=6
# Protocol: Study Design. […] Bioanalysis. […] Plasma 5-HTP levels and plasma escitalopram levels were measured using standard liquid chromatography with tandem mass spectrometry (LC-MS-MS) methods. […] Statistical analysis. […] Descriptive statistics were calculated for each quantitative variable within each treatment group and placebo (n, mean, standard deviation, median, minimum, maximum). […]

compound | half-life (h)
N[C@@H](Cc1c[nH]c2ccc(O)cc12)C(=O)O [5-HTP, 5-hydroxytryptophan] | 3.71

Values compiled from patent US11779567B2.
